METHOD_NOTES: Approximate solubility of free form in solvents at 25° C. (manual dilution, visual observation)
Format: physicochemical
CONDITION_PARAMETERS: methanol, organic solvent or mixture, thermodynamic from solid, read-out: Solubility (mg/mL) at 25° C.
READOUT_KIND: solubility

The compound identified as CN1CCC[C@H](CN2c3ccccc3Sc3ccccc32)C1 [(S)-mepazine] registered its solubility at > 100 mg/mL

* * *

METHOD_NOTES: Approximate solubility of free form in solvents at 25° C. (manual dilution, visual observation)
Format: physicochemical
CONDITION_PARAMETERS: acetone, organic solvent or mixture, thermodynamic from solid, read-out: Solubility (mg/mL) at 25° C.
READOUT_KIND: solubility

CN1CCC[C@H](CN2c3ccccc3Sc3ccccc32)C1 [(S)-mepazine] yielded solubility of > 100 mg/mL
